Assign Kd to each entry below.
# TARGET OR SYSTEM: T1, Botulinum neurotoxin serotype C (BoNT/C) (Clostridium botulinum, UniProt P18640 2-1291)
# T1 sequence: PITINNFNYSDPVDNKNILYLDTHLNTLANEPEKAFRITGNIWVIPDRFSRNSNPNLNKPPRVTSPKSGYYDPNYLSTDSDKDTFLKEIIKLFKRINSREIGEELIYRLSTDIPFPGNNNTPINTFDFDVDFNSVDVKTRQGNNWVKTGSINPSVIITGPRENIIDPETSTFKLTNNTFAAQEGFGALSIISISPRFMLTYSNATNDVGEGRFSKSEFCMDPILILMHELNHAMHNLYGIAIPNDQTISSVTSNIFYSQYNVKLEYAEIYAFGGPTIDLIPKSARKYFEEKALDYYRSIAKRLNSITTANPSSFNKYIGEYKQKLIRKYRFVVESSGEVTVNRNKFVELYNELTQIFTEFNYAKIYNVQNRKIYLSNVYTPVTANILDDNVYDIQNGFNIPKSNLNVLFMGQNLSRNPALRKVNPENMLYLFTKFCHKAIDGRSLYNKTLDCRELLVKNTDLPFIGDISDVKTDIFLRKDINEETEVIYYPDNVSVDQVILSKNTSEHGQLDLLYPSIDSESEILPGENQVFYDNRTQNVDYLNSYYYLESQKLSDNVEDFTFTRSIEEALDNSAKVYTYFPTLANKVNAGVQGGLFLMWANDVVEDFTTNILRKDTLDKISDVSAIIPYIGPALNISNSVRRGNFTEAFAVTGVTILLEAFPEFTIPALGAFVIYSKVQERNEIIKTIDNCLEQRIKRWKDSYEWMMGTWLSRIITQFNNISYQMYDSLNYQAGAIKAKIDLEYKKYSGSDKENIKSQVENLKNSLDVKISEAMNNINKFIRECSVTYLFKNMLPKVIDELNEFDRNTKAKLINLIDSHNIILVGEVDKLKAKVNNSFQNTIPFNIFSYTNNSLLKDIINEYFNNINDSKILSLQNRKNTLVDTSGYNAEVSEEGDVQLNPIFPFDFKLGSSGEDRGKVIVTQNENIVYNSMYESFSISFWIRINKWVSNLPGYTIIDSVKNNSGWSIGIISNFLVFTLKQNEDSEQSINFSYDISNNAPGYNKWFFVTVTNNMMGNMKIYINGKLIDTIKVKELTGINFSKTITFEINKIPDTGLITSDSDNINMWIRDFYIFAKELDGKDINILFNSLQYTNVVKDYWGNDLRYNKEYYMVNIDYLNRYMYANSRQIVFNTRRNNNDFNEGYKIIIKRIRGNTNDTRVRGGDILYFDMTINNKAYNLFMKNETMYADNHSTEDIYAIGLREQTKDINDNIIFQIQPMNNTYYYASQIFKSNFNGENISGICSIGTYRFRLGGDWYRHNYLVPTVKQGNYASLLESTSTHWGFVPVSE
# TEST DESCRIPTION: KinExA flow fluorimetry, solution phase, IgG

Q) Annotate the binder 4C4.2 IgG (antibody, V domains shown) VH: QVQLVESGPGLVKPSQTLSLTCSVSGASINNSPYFWNWFRQFPGKGLEWIGYIYWSGSTNYNPSLKSRLAMSVDTSKNQFSLKLTSATAADTAVYYCARDQGGGTVVKENWFDPWGQGTLVTVSS VL: DIQMTQSPSTLSASVGDRVTITCRASQSIGTYLNWYQQKPGRAPTLLVSRTSNLHTGVPSRFSGDGSGSHFSLTIDSLQPEDFATYYCQQSHTSPVTFGQGTKVEIK with its measured Kd.
A) 0.035 nM

Q) Read off the recorded Kd for 8DC4.4 IgG (antibody, V domains shown) VH: QVQLQESGPGLVKPSQTLSLTCTVSGGSISSDNYFWTWIRQSPGKGLEWLGHISYSGRSYTNLSLKRRLTISVDTSKNQFSLNLNSVTAADTAVYYCARERLPPGRGYDMDVWGQGTTVTVSS VL: DIVMTQSPSSVSASVGDRVTITCRASRDISIYLNWYQQKPGKAPKLLIYAASNLETGVPSRFSGSGSGTDFTLTISSLQPEDVATYYCQQSYNTPLTFGGGTKLEIKR
A) 0.136 nM

Q) Return Kd for the following binder: 4C4 IgG (antibody, V domains shown) VH: QVQLVESGPGLVKPSQTLSLTCSVSGASINNSPYFWNWFRQFPGKGLEWIGYIYWSGSTNYNPSLKSRLAMSVDTSKNQFSLKLTSATAADTAVYYCARDQGGGTVVKENWFDPWGQGTLVTVSS VL: DIVMTQSPSSLSASVGDRLTMTCQASQDIGKHLNWYQQKAGKPPKLLIYGASNLKTGVPSRFSAGVSWTDFTFTISNVQPEDVATYYCQQSYSTPPTFGQGTKVEIK
A) 0.888 nM

Q) Please supply the value of reported Kd for the item 4C4.1 IgG (antibody, V domains shown) VH: QVQLVESGPGLVKPSQTLSLTCSVSGASINNSPYFWNWFRQFPGKGLEWIGYIYWSGSTNYNPSLKSRLAMSVDTSKNQFSLKLTSATAADTAVYYCARDQGGGTVVKENWFDPWGQGTLVTVSS VL: ETTLTQSPSSLSASVGDRVSITCRASQSISNYLNWYQQKPGKAPKLLIYAASSLQSGVPSRFSGSGSGTDFTLTISSLQPEDFATYYCQQSYSDPPTFGQGTKVEIK
A) 0.57 nM

Q) Tell me measured Kd for 4C4.4 IgG (antibody, V domains shown) VH: QVQLQESGPGLVKPSQTLSLTCTVSGASISNSPYFWNWFRQFPGKGLEWIGYIYWSGSTNYNPSLKSRLAMSVDTSKNQFSLKLTSATAADTAVYYCARDQGGGTVVKENWFDPWGQGTLVTVSS VL: DIVMTQSPSSLSASVGDRLTMTCQASQDIGKHLNWYQQKAGKPPKLLIYGASNLKTGVPSRFSAGVSWTDFTFTISNVQPEDVATYYCQQSYSTPPTFGQGTKVEIKR please.
A) 0.016 nM
